Target: hGLP-1R (Homo sapiens, UniProt P43220)
Sequence (P43220 24-463): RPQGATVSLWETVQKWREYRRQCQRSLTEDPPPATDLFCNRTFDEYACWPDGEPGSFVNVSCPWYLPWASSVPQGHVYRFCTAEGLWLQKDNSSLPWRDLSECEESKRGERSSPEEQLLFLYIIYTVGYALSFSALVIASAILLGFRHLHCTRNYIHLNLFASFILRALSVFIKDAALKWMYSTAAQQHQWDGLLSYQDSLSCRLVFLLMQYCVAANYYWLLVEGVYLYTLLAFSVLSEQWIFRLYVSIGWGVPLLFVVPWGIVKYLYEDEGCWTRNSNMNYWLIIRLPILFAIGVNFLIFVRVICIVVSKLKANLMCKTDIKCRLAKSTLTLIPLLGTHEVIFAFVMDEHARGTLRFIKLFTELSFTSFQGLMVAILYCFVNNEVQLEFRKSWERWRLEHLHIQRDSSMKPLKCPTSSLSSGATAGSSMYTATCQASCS
Assay: Functional cAMP activation in the presence of 0.1% casein (no HSA);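 also: intracellular cAMP rise after 30 min at 37 °C read by HTRF, normalized between buffer only (0%) and maximal control ligand (100%), four-parameter variable-slope fit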
Type: cell-based
Details: in the presence of 0.1% casein (no HSA); geometric mean; read-out: Relative cAMP EC50, hGLP-1R
Starred links: 1 amine or outer side, 2 acyl side, 3 side chain; linkers in the order of their positions; H or OH if unused. Non-standard residues stand in square brackets, D forms with d. Groups on a side chain read outwards from the residue. *: point of attachment. C20 diacid = O=C(O)CCCCCCCCCCCCCCCCCCC(=O)*; C18 diacid = O=C(O)CCCCCCCCCCCCCCCCC(=O)*; αMePhe(2-F) = C[C@](N)(Cc1ccccc1F)C(=O)O; γGlu = O=C(O)[C@H](CCC(=O)[*:2])N[*:1]; αMe4Pal = C[C@](N)(Cc1ccncc1)C(=O)O; αMeY = C[C@](N)(Cc1ccc(O)cc1)C(=O)O; 4Pal = N[C@@H](Cc1ccncc1)C(=O)O; αMeL = CC(C)C[C@](C)(N)C(=O)O; Orn = NCCC[C@H](N)C(=O)O; AEEA = NCCOCCOCC(=O)O; Aib = CC(C)(N)C(=O)O
endpoint_name: EC50

>  <substance>
H-Y[Aib]QGTFTSD[4Pal]S[Orn][αMeL]LDKK([AEEA-γGlu-γGlu-C18 diacid])AQ[αMe4Pal]AFIE[αMe4Pal]LIE[Aib]GPSSGEPPPSGS-NH2 [Example 987]

>  <EC50>
6.33 nM

$$$$
>  <substance>
H-Y[Aib]QGTFTSD[4Pal]S[Orn][αMeL]LD[Orn]K([γGlu-γGlu-C18 diacid])AQ[αMe4Pal]EFIE[αMeY]LLEGGPSSGAPPPSGSEE-NH2 [Example 976]

>  <EC50>
21.8 nM

$$$$
>  <substance>
H-Y[Aib]QGTFTSD[4Pal]SK[αMeL]LDKK([γGlu-γGlu-C18 diacid])AQ[Aib]AFIEYLIE[Aib]GPSSGAPPPSGSEE-NH2 [Example 905]

>  <EC50>
2.52 nM

$$$$

## Input // EC50 lookup, key: H-Y[Aib]QGT[αMePhe(2-F)]TSDYSKILDKIAQK([AEEA-γGlu-C20 diacid])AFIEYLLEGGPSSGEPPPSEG-NH2 [Example 311]
## Output 3.36 nM
